- targetOfAssay: SARS-CoV-2 RBD extracellular domain expressed with a C-terminal mouse IgG2a (SARS-COV-2 RBD-mFc) (SARS-CoV-2)
measuredParameter: t1/2

Query block: # lookup: t1/2 of mAb10986 (antibody, V domains shown) VH: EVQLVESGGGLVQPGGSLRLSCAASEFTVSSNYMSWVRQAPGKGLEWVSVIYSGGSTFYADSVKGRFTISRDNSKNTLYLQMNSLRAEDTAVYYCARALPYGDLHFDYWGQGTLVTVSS VL: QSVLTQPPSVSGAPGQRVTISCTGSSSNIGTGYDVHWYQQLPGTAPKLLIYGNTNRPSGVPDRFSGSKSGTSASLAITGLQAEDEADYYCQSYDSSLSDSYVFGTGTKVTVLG
Result block: ≥ 19.2 h

Query block: Report t1/2 for mAb10920 (antibody, V domains shown) VH: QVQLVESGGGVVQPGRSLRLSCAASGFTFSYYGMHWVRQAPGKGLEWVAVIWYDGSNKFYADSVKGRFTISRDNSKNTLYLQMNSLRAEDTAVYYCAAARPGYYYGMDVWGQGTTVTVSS VL: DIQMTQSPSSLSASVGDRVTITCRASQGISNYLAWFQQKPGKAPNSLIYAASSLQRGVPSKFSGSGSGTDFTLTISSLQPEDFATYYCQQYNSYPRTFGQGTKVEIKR please.
Result block: 0.658 h

Query block: Using the record for mAb10964 (antibody, V domains shown) VH: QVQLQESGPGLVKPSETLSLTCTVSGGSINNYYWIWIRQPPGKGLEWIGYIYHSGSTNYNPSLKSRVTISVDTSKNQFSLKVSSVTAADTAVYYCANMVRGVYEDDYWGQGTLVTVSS VL: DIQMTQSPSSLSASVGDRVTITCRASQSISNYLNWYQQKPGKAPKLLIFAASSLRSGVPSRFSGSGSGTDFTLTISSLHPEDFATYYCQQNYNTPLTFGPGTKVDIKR , report its t1/2.
Result block: ≥ 19.2 h

Query block: Using the record for mAb10955 (antibody, V domains shown) VH: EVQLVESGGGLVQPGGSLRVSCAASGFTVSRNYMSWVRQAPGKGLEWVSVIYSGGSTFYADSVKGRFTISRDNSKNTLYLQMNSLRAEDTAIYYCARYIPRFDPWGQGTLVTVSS VL: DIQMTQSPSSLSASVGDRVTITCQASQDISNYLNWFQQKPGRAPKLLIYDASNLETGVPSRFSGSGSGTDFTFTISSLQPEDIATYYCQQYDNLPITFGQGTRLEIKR , report its t1/2.
Result block: 8.23 h

Query block: Returns the measured t1/2 for the input binder. Input: mAb10939 (antibody, V domains shown) VH: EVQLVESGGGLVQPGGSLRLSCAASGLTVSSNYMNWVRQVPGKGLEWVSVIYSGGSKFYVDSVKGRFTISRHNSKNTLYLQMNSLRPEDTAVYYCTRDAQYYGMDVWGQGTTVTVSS VL: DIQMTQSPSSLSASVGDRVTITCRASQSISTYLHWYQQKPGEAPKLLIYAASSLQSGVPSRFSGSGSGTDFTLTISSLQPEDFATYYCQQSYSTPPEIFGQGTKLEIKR
Result block: 16.7 h

Query block: Reported t1/2 for mAb10938 (antibody, V domains shown) VH: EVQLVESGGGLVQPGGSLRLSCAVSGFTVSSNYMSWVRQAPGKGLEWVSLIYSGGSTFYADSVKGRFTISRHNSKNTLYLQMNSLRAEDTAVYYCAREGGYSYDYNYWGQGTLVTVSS VL: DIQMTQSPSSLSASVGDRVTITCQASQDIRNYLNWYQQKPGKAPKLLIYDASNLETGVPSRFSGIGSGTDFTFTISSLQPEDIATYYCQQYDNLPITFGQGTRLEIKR : what is it?
Result block: ≥ 19.2 h

Query block: Bench note: what t1/2 did mAb10971 (antibody, V domains shown) VH: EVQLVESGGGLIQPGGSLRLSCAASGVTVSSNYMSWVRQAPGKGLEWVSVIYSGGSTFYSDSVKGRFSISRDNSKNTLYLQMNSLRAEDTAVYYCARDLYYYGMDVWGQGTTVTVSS VL: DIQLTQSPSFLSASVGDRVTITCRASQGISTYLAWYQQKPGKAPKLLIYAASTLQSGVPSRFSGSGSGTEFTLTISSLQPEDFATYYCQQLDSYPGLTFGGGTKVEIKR show?
Result block: ≥ 19.2 h

Query block: Which t1/2 value belongs to mAb10957 (antibody, V domains shown) VH: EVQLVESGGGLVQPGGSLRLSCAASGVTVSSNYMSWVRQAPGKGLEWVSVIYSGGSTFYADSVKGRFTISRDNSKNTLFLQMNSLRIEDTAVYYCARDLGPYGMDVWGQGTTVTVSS VL: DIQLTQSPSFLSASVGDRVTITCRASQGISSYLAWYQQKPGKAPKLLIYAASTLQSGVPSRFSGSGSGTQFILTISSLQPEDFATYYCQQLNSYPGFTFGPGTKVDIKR ?
Result block: ≥ 19.2 h

Query block: Give its t1/2 value. Item: mAb10935 (antibody, V domains shown) VH: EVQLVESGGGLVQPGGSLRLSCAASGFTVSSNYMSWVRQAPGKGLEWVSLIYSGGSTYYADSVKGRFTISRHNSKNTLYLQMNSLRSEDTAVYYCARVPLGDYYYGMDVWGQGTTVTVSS VL: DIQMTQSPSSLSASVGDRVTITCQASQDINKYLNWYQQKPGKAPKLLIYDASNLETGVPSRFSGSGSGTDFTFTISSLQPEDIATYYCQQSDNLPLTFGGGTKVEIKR
Result block: ≥ 19.2 h

Query block: So what does the record say about t1/2 for mAb10967 (antibody, V domains shown) VH: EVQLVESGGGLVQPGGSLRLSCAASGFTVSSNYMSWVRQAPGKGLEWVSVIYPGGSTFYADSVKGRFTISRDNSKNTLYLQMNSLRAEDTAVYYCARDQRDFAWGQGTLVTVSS VL: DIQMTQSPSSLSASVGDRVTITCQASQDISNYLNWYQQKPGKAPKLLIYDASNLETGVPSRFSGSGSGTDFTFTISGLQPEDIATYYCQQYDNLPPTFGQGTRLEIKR ?
Result block: ≥ 19.2 h
